Source listed as the RNAGym collection of RNA variant scans (doi:10.7554/elife.90254).

B1: LINE1-mini (parent)
chain: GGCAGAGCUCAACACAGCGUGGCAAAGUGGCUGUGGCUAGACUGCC

# Variants of: B1
# method summary: self-cleavage, relative activity (ratio to wild type); higher = more cleavage; in vitro, sequencing; the parent is a self-cleaving ribozyme
measurement label: self-cleavage
Give your answer as a number; write no unit.

Task item: For the variant shown here, GGCAGAGGUCAACACAGCGUGGCAAAGUGGCUGUGUCUAGACUGCC [C8G G36U] , give the reported self-cleavage.
Reply: 0.07

Task item: For the variant shown here, GGCAGAGCGUAACACAGCGUGGCAAAGUGGCUGUGGCUAGACUGCC [U9G C10U] , give the reported self-cleavage.
Reply: 0.05

Task item: For the variant shown here, GGCAGAGUUCAACACAGCGUUGCAAAGUGGCUGUGGCUAGACUGCC [C8U G21U] , give the reported self-cleavage.
Reply: 0.25

Task item: For the variant shown here, GGCUGAGCUCAACACAGCGUGCCAAAGUGGCUGUGGCUAGACUGCC [A4U G22C] , give the reported self-cleavage.
Reply: 0.08

Task item: For the variant shown here, GACAGAGCUCAACACAGCGUGGCAAAGUGGCUGUUGCUAGACUGCC [G2A G35U] , give the reported self-cleavage.
Reply: 0.41

Task item: For the variant shown here, GGCAGAGAUUAACACAGCGUGGCAAAGUGGCUGUGGCUAGACUGCC [C8A C10U] , give the reported self-cleavage.
Reply: 0.08

Task item: For the variant shown here, GGCAGAGCUCAACACAGCGUGGCAUAGUGGCUGUCGCUAGACUGCC [A25U G35C] , give the reported self-cleavage.
Reply: 0.09

Task item: For the variant shown here, GGCAGAGCUCUACACAGCGUGGCAAAGUGGCUGGGGCUAGACUGCC [A11U U34G] , give the reported self-cleavage.
Reply: 0.02

Task item: For the variant shown here, GGCAGGGUUCAACACAGCGUGGCAAAGUGGCUGUGGCUAGACUGCC [A6G C8U] , give the reported self-cleavage.
Reply: 0.22

Task item: For the variant shown here, GGCAGAGCUCACCACAACGUGGCAAAGUGGCUGUGGCUAGACUGCC [A12C G17A] , give the reported self-cleavage.
Reply: 0.01

Task item: For the variant shown here, GGCAGAGCUCAAUACAGCGUGGCAGAGUGGCUGUGGCUAGACUGCC [C13U A25G] , give the reported self-cleavage.
Reply: 0.07

Task item: For the variant shown here, GGCAGAGCUCAACACAGCUUGGCAAAGUCGCUGUGGCUAGACUGCC [G19U G29C] , give the reported self-cleavage.
Reply: 0.64

Task item: For the variant shown here, GGCAGAGCUCAACACAGCGGGGCAAAGUGUCUGUGGCUAGACUGCC [U20G G30U] , give the reported self-cleavage.
Reply: 0.47

Task item: For the variant shown here, GGCAGAGCUUAACACAGCGUGGCAAAGUGGAUGUGGCUAGACUGCC [C10U C31A] , give the reported self-cleavage.
Reply: 0.13

Task item: For the variant shown here, GGCAGAGCUCAACACAGCGUAGCAAAGUGGCUGUGGCUAGCCUGCC [G21A A41C] , give the reported self-cleavage.
Reply: 0.12

Task item: For the variant shown here, GGCAGAGCUCAACACAGGGUGGCAAAGUGGCUGUGGCUAGAAUGCC [C18G C42A] , give the reported self-cleavage.
Reply: 0.07

Task item: For the variant shown here, GGCAGAGCUCACCACAUCGUGGCAAAGUGGCUGUGGCUAGACUGCC [A12C G17U] , give the reported self-cleavage.
Reply: 0.02

Task item: For the variant shown here, GGCAGAUCUCAACACAGCGUGGCAAAGUGGCUGGGGCUAGACUGCC [G7U U34G] , give the reported self-cleavage.
Reply: 0.05

Task item: For the variant shown here, GGCAGAGCUCAACACAGAGUGGCAAAGUGGCUAUGGCUAGACUGCC [C18A G33A] , give the reported self-cleavage.
Reply: 0.03

Task item: For the variant shown here, GGCAGAGCUCAACAAAGCGUGGCAAAGUGGCUGUGGCUAGACGGCC [C15A U43G] , give the reported self-cleavage.
Reply: 0.07

Task item: For the variant shown here, GGCAGAGCUCAACACAGCGUGGCAAAAUGGCUUUGGCUAGACUGCC [G27A G33U] , give the reported self-cleavage.
Reply: 0.17

Task item: For the variant shown here, GGCAGAGCUCAUCACCGCGUGGCAAAGUGGCUGUGGCUAGACUGCC [A12U A16C] , give the reported self-cleavage.
Reply: 0.05
